# Test system: ES-D3 embryoid bodies
# experiment-summary: Embryoid body
# Assay type: cell-based, murine
# measurement-setup: Mus musculus, read-out: EB area (EC50); day 7
endpoint-label: pEC50
One number for each entry, as −log10 of the molar value.

>>> readout_number("O=P(Oc1ccccc1)(Oc1ccccc1)Oc1ccccc1 [Triphenyl phosphate, triphenyl phosphate]")
3.92
>>> readout_number("CCOC(=O)CC(SP(=S)(OC)OC)C(=O)OCC (stereo not drawn)")
4.14

In the following, a different compound is considered.
# get_value(readout='pEC50', item= `CCOP(=S)(OCC)Oc1nc(Cl)c(Cl)cc1Cl` ) 3.86
